# Test system: UACC-257 melanoma
# protocol.notes: NCI tumour cell line growth inhibition, 48 h
readout.name: TGI

* Cc1c2cccc-2ccc2c3ccccc3n(C(=O)c3ccc(Cl)cc3)c12 | > 100 µM
* Oc1ccc(-c2nc3ccccc3s2)cc1 | > 100 µM
* CCCCCC(=O)Nc1nc2nc[nH]c2c(=O)[nH]1 | > 100 µM
* Clc1ccc(-c2c3ccc(=[N+]4CCCCC4)cc-3oc3cc(N4CCCCC4)ccc23)cc1 | 0.304 µM
* O=C(C(=O)n1ncc(Cl)c(Cl)c1=O)n1ncc(Cl)c(Cl)c1=O | 35.7 µM
* CC(C)(C)C1=C(Br)C(O)(C(C)(C)C)OP1(=O)c1ccccc1 (stereo unspecified) | > 100 µM
* CCCCCCCCCCCCC(O)c1ccco1 (stereo unspecified) | 39.4 µM
* CCN(CC)CC1CCCCN1CC(=O)N1CC(C)C(=O)Nc2ccccc21 (stereo unspecified) | > 100 µM
* O=C(NC(=O)c1c(Cl)nc2sccn12)Nc1ccc(Cl)cc1 | > 100 µM
* Nc1c(S(=O)(=O)O)cc(S(=O)(=O)O)c2ccc(N=Nc3ccc(/C=C/c4ccc(N=Nc5ccc6c(S(=O)(=O)O)cc(S(=O)(=O)O)c(N)c6c5O)cc4S(=O)(=O)O)c(S(=O)(=O)O)c3)c(O)c12 | > 100 µM
* CC1(C)CC[C@]2(C(=O)O)CC[C@]3(C)[C@H](C(=O)C=C4[C@@]5(C)C=C(C#N)C(=O)C(C)(C)[C@@H]5CC[C@]43C)[C@@H]2C1 | 2.84 µM
* CCNc1cc2c3c(c1)CCN3CCC2 | > 10 µM
* O=C(c1ccc(Cl)cc1)N1CCN=C1c1cc2ccccc2c2ccccc12 | 31.8 µM
* O=C(Nc1nn[nH]n1)c1nc(-c2ccccc2)cc(=O)[nH]1 | > 100 µM
* O=C(Nc1ccccc1I(=O)=O)C1CCCCC1 | > 100 µM
* Cc1cc(S(=O)(=O)/N=C(/NN)Nc2ccc(Cl)cc2)c(S)cc1Cl | 72.5 µM
* COC1=CC(=O)N(C)C(O)C1(C#N)OC1OC(CO)C(O)C(O)C1O (stereo unspecified) | > 100 µM
* CCC[CH2][Sn]([CH2]CCC)([S]C#N)[S]C#N | 2.4 µM
* CCOc1cc2c(cc1O)C(O)C[C@@H]1[C@@H]2CC[C@]2(C)[C@@H](O)CC[C@@H]12 (stereo partly specified) | > 100 µM
* O=c1c2ccccc2nc2ccc3c(Cl)[nH][nH]c3c12 | > 92.7 µM
* CS(=O)(=O)Nc1cccc(-c2ccc3ncnc(Nc4ccc(F)c(Cl)c4)c3c2)c1 | 5.07 µM

====

# Tested on: BT-549 breast
# protocol.notes: NCI tumour cell line growth inhibition, 48 h; in the data active means GI50 below about 0.43 µM; inactive means the rest
Classes used: 1 = active, 0 = inactive

* CS(=O)(=O)c1ccc(Nc2nc(N[C@H]3CCCC[C@H]3N)nc3cc[nH]c(=O)c23)cc1 | 0
* O=C(NCCCc1cn[nH]c1)c1ccc(-c2ccncc2)c(C#Cc2ccc(F)cc2)c1 | 1
* COc1cc(C2C3=C(COC3=O)N(CCO)c3cc4c(cc32)OCCO4)cc(OC)c1OC (stereo not drawn) | 1
* CCCOC(=O)c1c(C)n(C)c2scc[n+]12 | 0
* CN(C)CCCn1c(=O)c2ccccc2c2cnc3[nH]ccc3c21 | 0
* C#C[C@@]1(O)[C@@H](CO)O[C@@H](n2cc(I)c3c(N)ncnc32)[C@@H]1O | 1
* CCCCC#Cc1c(I)n(C)c(=O)[nH]c1=O | 0
* COc1ccccc1S(=O)(=O)Nc1ccc2c3c(cc(CCC(=O)NCCCCNc4cccc5c4C(=O)N(C4CCC(=O)NC4=O)C5=O)cc13)C(=O)N2C (stereo not drawn) | 1
* c1ccc(OCCC[P+](c2ccccc2)(c2ccccc2)c2ccccc2)cc1 | 0
* [N-]=[N+]=NCCCn1c2c(c3ccc([N+](=O)[O-])cc3c1=O)C(=O)c1cc(Br)ccc1-2 | 0
* CS(=O)(=O)Nc1cccc(-c2ccc3ncnc(Nc4ccc(F)c(Cl)c4)c3c2)c1 | 0
* CCN(CC)CCCC(C)Nc1cc(-c2cccc(OC(F)(F)F)c2)nc2ccc(N3CCCC3)cc12 (stereo not drawn) | 1
* O=C1/C(=C/c2ccc(F)cc2)CN(C(=O)CCN2CCC(=NO)CC2)C/C1=C\c1ccc(F)cc1 | 0
